target: CHOK1 cells engineered to overexpress human CCR2 (Homo sapiens); construct: expressed in transfected cells; host or cells: CHOK1 cells; test: Antibody dependent cellular cytotoxicity (ADCC) reporter assay (Example 199); type: cell-based; details: with anti-cotinine antibody SEQ ID NO: 11/12; CHOK1-human CCR2 target cells, Jurkat FcγRIIIa NFAT-luciferase reporter cells; 12-18 hours; read-out: ADCC Reporter Assay pEC50 (converted)
quantity_measured: EC50 (nM)

>  <compound>
CC(C)N(C)[C@@H]1CC[C@H](N2CC[C@H](Nc3ncnc4ccc(C(F)(F)F)cc34)C2=O)[C@H](NC(=O)COCCOCCNC(=O)CCOCCOCCNC(=O)[C@H]2CC(=O)N(C)[C@@H]2c2cccnc2)C1

>  <target_system>
CHOK1 cells engineered to overexpress human CCR2 (Homo sapiens)

>  <quantity_measured>
EC50

>  <test_value>
5.52

$$$$
>  <compound>
CC(C)N(C)[C@@H]1CC[C@H](N2CC[C@H](Nc3ncnc4ccc(C(F)(F)F)cc34)C2=O)[C@H](NC(=O)C2CCC(N3CC(C(=O)NCCOCCOCCNC(=O)[C@H]4CC(=O)N(C)[C@@H]4c4cccnc4)C3)CC2)C1 (stereo partly drawn)

>  <target_system>
CHOK1 cells engineered to overexpress human CCR2 (Homo sapiens)

>  <quantity_measured>
EC50

>  <test_value>
3.16

$$$$
>  <compound>
CN1C(=O)C[C@H](C(=O)NCCOCC(=O)NCCOCCC(=O)NCCOCCC(=O)N[C@@H]2C[C@H](NC(C)(C)C)CC[C@@H]2N2CC[C@H](Nc3ncnc4ccc(C(F)(F)F)cc34)C2=O)[C@H]1c1cccnc1

>  <target_system>
CHOK1 cells engineered to overexpress human CCR2 (Homo sapiens)

>  <quantity_measured>
EC50

>  <test_value>
0.558

$$$$
>  <compound>
CC(C)N(C)[C@@H]1CC[C@H](N2CC[C@H](Nc3ncnc4ccc(C(F)(F)F)cc34)C2=O)[C@H](NC(=O)[C@H]2C[C@@H](NC(=O)CCOCCNC(=O)CCOCCNC(=O)[C@H]3CC(=O)N(C)[C@@H]3c3cccnc3)C2)C1

>  <target_system>
CHOK1 cells engineered to overexpress human CCR2 (Homo sapiens)

>  <quantity_measured>
EC50

>  <test_value>
0.897

$$$$
>  <compound>
CC(C)N(C)[C@@H]1CC[C@H](N2CC[C@H](Nc3ncnc4ccc(C(F)(F)F)cc34)C2=O)[C@H](NC(=O)COCCNC(=O)COCCOCCNC(=O)CCNC(=O)[C@H]2CC(=O)N(C)[C@@H]2c2cccnc2)C1

>  <target_system>
CHOK1 cells engineered to overexpress human CCR2 (Homo sapiens)

>  <quantity_measured>
EC50

>  <test_value>
3.24

$$$$
>  <compound>
CC(C)N(C)[C@@H]1CC[C@H](N2CC[C@H](Nc3ncnc4ccc(C(F)(F)F)cc34)C2=O)[C@H](NC(=O)CCOCCNC(=O)[C@H]2CC[C@H](NC(=O)COCCNC(=O)[C@H]3CC(=O)N(C)[C@@H]3c3cccnc3)CC2)C1

>  <target_system>
CHOK1 cells engineered to overexpress human CCR2 (Homo sapiens)

>  <quantity_measured>
EC50

>  <test_value>
0.0501

$$$$
>  <compound>
CC(C)N(C)[C@@H]1CC[C@H](N2CC[C@H](Nc3ncnc4ccc(C(F)(F)F)cc34)C2=O)[C@H](NC(=O)[C@H]2CC[C@H](N3CCN(C4CC(CCNC(=O)[C@H]5CC(=O)N(C)[C@@H]5c5cccnc5)C4)CC3)CC2)C1 (stereo partly drawn)

>  <target_system>
CHOK1 cells engineered to overexpress human CCR2 (Homo sapiens)

>  <quantity_measured>
EC50

>  <test_value>
6.31

$$$$
>  <compound>
CC(C)N(C)[C@@H]1CC[C@H](N2CC[C@H](Nc3ncnc4ccc(C(F)(F)F)cc34)C2=O)[C@H](NC(=O)C2CC=C(c3ccc(OCCCCCCNC(=O)[C@H]4CC(=O)N(C)[C@@H]4c4cccnc4)cc3)CC2)C1 (stereo partly drawn)

>  <target_system>
CHOK1 cells engineered to overexpress human CCR2 (Homo sapiens)

>  <quantity_measured>
EC50

>  <test_value>
2.51

$$$$
>  <compound>
CC(C)N(C)[C@@H]1CC[C@H](N2CC[C@H](Nc3ncnc4ccc(C(F)(F)F)cc34)C2=O)[C@H](NC(=O)COCCNC(=O)CNC(=O)CCOCCOCCNC(=O)[C@H]2CC(=O)N(C)[C@@H]2c2cccnc2)C1

>  <target_system>
CHOK1 cells engineered to overexpress human CCR2 (Homo sapiens)

>  <quantity_measured>
EC50

>  <test_value>
1.58

$$$$
